List of Log10 TGI50 values.
Test system: HCT-15
assay_comment: SRB 48 h growth assay, Colon HCT-15
Format: cell-based, human
condition_info: HCT-15, Colon

query_smiles: C#Cc1ccc(-n2c(/C=C/c3cc(OC)c(OC)c(OC)c3)nc3ncccc3c2=O)cc1
test_system: HCT-15
Log10 TGI50: >−4.00

query_smiles: C#Cc1ccc(-n2c(/C=C/c3ccc4ccccc4c3)nc3ncccc3c2=O)cc1
test_system: HCT-15
Log10 TGI50: >−4.00

query_smiles: C#Cc1ccc(-n2c(/C=C/c3ccc(O)cc3)nc3ncccc3c2=O)cc1
test_system: HCT-15
Log10 TGI50: >−4.00
